Would you mind telling me the reported growth inhibition of each entry?
assay: NCI Yeast Anticancer Drug Screen. Data for the mlh1 rad18 strain (AID 175); settings: S. cerevisiae mlh1 rad18 strain growth inhibition; at 5.0 µM (retest, dose inferred, filed as 0.5); stronger effect = higher value
The panel holds about 79,000 compounds, 15% with a hit somewhere; the sample as a whole holds those more often.
Numbers only, in %.

Look over these answered cases.
* Oc1ccc(-c2ccccc2)cc1Cl | -5
* Cc1ccc(N2C(=O)CCSC2=S)cc1C | -2

Hello, I would appreciate it if you could give growth inhibition for each entry below.
1. Cc1c[n+](CC(=O)c2ccc(I)cc2)c(C)s1
2. O=C(O)NCc1ccccc1 (tested in a mixture with another compound)
3. Cc1cccc(Cl)c1NC(=S)Nc1cccc(C(F)(F)F)c1
4. COc1ccc(C(CC(=O)c2ccc(C)cc2)Sc2ccccc2N)cc1 (stereo unspecified)

A)
[-2, 3, -21, 35]

Hello, I would appreciate it if you could give growth inhibition for each entry below.
1. CCOC(=O)C(F)C(Br)C(=O)OCC (stereo unspecified)
2. CC(=O)Nc1cccc(Oc2ccc(Br)cc2[N+](=O)[O-])c1
3. Cc1cc(NCCCCCCNc2cc(C)nc3cc(N(C)C)ccc23)c2ccc(N(C)C)cc2n1
4. c1ccc2[nH]c(CN(CCN(Cc3nc4ccccc4[nH]3)Cc3nc4ccccc4[nH]3)Cc3nc4ccccc4[nH]3)nc2c1
5. CCCCCCCCCc1cccc(N2C(N)=NC(N)=NC2(C)C)c1
6. c1ccc2c(c1)OCC(CNCCNCC1COc3ccccc3O1)O2 (stereo unspecified)

A)
1: 49; 2: 20; 3: 7; 4: 96; 5: 99; 6: 75

Hello, I would appreciate it if you could give growth inhibition for each entry below.
1. CC1(C)c2ccccc2Cc2cc3ccccc3nc21
2. CCN(CCCOc1ccccc1)CCN(CC)CCCOc1ccccc1
3. CC(=O)OCCC1=CCC2CC1C2(C)C (stereo unspecified)
4. CCOC(=O)/N=C(\N)SCc1ccccc1

A)
1: -1; 2: 15; 3: -3; 4: -3

###

Assay: NCI Yeast Anticancer Drug Screen. Data for the sgs1 mgt1 strain (AID 161);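 note: 0% = growth of cultures given vehicle only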
Conditions: S. cerevisiae sgs1 mgt1 strain, at 50.0 µM, stronger effect = higher value
Method: Growth inhibition of yeast strains with defined genetic alterations is measured as a screen for potential anti-cancer activity. Selected strains with alterations in DNA damage repair or cell cycle control were exposed to compounds and growth inhibition was measured relative to vehicle treated controls. The strain used in this assay is sgs1 mgt1
The panel holds about 79,000 compounds, 15% with a hit somewhere; the sample as a whole holds those more often.
outcome.measure: growth inhibition (%)
Give bare numbers, in %.

Look over these answered cases.
* OC1(c2ccccc2)c2ccccc2Sc2ccccc21 | 99.2
* CN(C)c1ccc(N=Nc2ccc3c4c(cccc24)-c2ccccc2-3)cc1 | 97.4
* O=S(=O)(CC(Br)Br)c1ccccc1 | 41

Hello, I would appreciate it if you could give growth inhibition for each entry below.
1. COc1ccc(OC)c2c(=S)c3ccccc3[nH]c12
2. CSC(=S)N/N=C(/C)CC(C)C
3. O=C(c1ccccc1)C(Br)CCCC(Br)C(=O)c1ccccc1 (stereo not given)
4. Cn1cnc([N+](=O)[O-])c1Sc1ccc(Cl)cc1
5. COc1ccc(N=NN2CCCC2)cc1
6. CCN(CC)CC(O)CNc1ccc(NCC(O)CCl)c2c1C(=O)c1ccccc1C2=O (stereo not given)

A)
60.6
45.8
96
90.9
86.3
7.1

Hello, I would appreciate it if you could give growth inhibition for each entry below.
1. O=C1CC2(CCCC2)C(=O)N1c1ccc(N2C(=O)CC3(CCCC3)C2=O)cc1
2. COC(=O)CCC(=O)NCCc1ccc2c([nH]c3ccccc32)c1C
3. CCOC(=O)C(C)(C)Oc1ccc2c(=O)cc(-c3ccccc3)oc2c1
4. COc1ccc(NC(=O)Nc2ccc(Cl)cc2)nn1

A)
-22.4
71.2
93.4
1.3

Hello, I would appreciate it if you could give growth inhibition for each entry below.
1. O=C1CCCC/C1=C/c1ccc(Cl)cc1
2. CCCc1cc(-c2ccc(O)c(CCC)c2)ccc1O

A)
[82, 99.5]

###

test: NCI Yeast Anticancer Drug Screen. Data for the bub3 strain (AID 167); conditions: S. cerevisiae bub3 mutant strain, at 50.0 µM
Compounds without any hit were thinned out: in the full panel of roughly 79,000, 15% have a hit. Calls of active or inactive are those of the source. No stated cut-off is given here; in the data, active means growth inhibition above about 70%; inactive means the rest.
A correct response names exactly one class from TRUE = active, FALSE = inactive

- O=C(Sc1ccccc1)C1OC12CCCCC2 (stereo not given): FALSE
- CN1C/C(=C\c2ccccc2)C(=O)C(c2ccccc2)C1 (stereo not given): TRUE
- CC(=O)Oc1ccc(N=[N+]([O-])c2ccc(OC(C)=O)cc2)cc1: FALSE

Now examine the next entry.
Q) Short answer needed: outcome of this test for C/C(=N/NC(N)=O)C1CC(CCC2([N+](=O)[O-])CCC(C)(O)C(/C(C)=N\NC(N)=O)C2)([N+](=O)[O-])CCC1(C)O (stereo not given) ?
A) TRUE

###

assay: NCI Yeast Anticancer Drug Screen. Data for the rad50 strain (AID 155);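 note: 0% = growth of vehicle-only cultures of the same strain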; settings: S. cerevisiae rad50 strain growth inhibition; at 50.0 µM
This is part of a sample that, as a whole, favours compounds with a hit. Of some 79,000 tested, about 15% had one in any assay. Activity calls are given as the source filed them. Rule as the data show it: active = growth inhibition above about 70%; inactive = the rest.
A correct response names exactly one class from TRUE = active, FALSE = inactive

Examples from the recorded data:
* Oc1ccccc1C(c1cc2c(cc1O)OCO2)N1CCOCC1 (stereo not given) | TRUE
* Cc1ccc(N=C(N)Nc2ccc(C)cn2)nc1 | TRUE
* FC(F)(F)c1ccc(NC(=S)SCc2ccc3c(c2)OCO3)cc1 | TRUE
* COC(=O)C1=CCC[C@H]2C1(C)CCC(C)C21CC(c2ccoc2)OC1=O (stereo not given in full) | FALSE
* C/C(=N/NC(=S)NCc1ccccc1)c1ncccn1 | TRUE
* O=C(CCCCCCCCCCc1ccccc1)c1ccc(Cl)cc1 | TRUE
* COc1ccccc1/C=C(\NC(=O)c1ccccc1)c1nc2ccccc2[nH]1 | TRUE
* Cc1ccc(S(=O)(=O)NNc2nc(N(C)C)nc(N(C)C)n2)cc1 | FALSE

Q) Short answer needed: outcome of this test for Cc1ccc2nc(-c3ccc(N)cc3)sc2c1 ?
A) TRUE

Q) Short answer needed: outcome of this test for CCCCCCCCCCCC[N+]1(C)CCCC1c1cccnc1 (stereo not given) ?
A) FALSE

Q) Short answer needed: outcome of this test for Cc1ccc(S(=O)(=O)N/N=C/Cc2ccccc2)cc1 ?
A) TRUE

Q) Short answer needed: outcome of this test for Nc1ccccc1Sc1ccccc1 ?
A) TRUE

Q) Short answer needed: outcome of this test for CCCCCCCCCCNC(=O)CBr ?
A) TRUE

Q) Short answer needed: outcome of this test for O=C1CSC(=S)N1c1cccc(Cl)c1 ?
A) FALSE

Q) Short answer needed: outcome of this test for O=c1ssc(=Nc2ccc(Cl)cc2)n1-c1ccc(Cl)cc1 ?
A) TRUE

###

Assay: NCI Yeast Anticancer Drug Screen. Data for the rad50 strain (AID 155);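 note: 0% = growth of vehicle-only cultures of the same strain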
Conditions: S. cerevisiae rad50 strain growth inhibition; at 50.0 µM (retest, dose inferred, filed as 5.0); stronger effect = higher value
Description: Growth inhibition of yeast strains with defined genetic alterations is measured as a screen for potential anti-cancer activity. Selected strains with alterations in DNA damage repair or cell cycle control were exposed to compounds and growth inhibition was measured relative to vehicle treated controls. The strain used in this assay is rad50
This is part of a sample that, as a whole, favours compounds with a hit. Of some 79,000 tested, about 15% had one in any assay.
Would you mind telling me the reported growth inhibition of each entry?
One number for each entry, in %.

Look over these answered cases.
- N#CCc1ccccc1-c1cccc2ccccc12: 36
- CC(=O)C(C=O)C(C)=O.CC(=O)CC(C)=O.CC(=O)CC(C)=O.[Ru]: 59
- Clc1cccc(Cl)c1C(Nc1nncs1)Nc1nncs1: 85

Hello, I would appreciate it if you could give growth inhibition for each entry below.
1. ClC/C=C/c1ccccc1
2. C[n+]1c(-c2cccc(OCCCCCCCCCCOc3cccc(-c4c5cc(N)ccc5c5ccc(N)cc5[n+]4C)c3)c2)c2cc(N)ccc2c2ccc(N)cc21
3. Nc1cc2[nH]c(=O)c3cc(Cl)ccc3c2cc1Cl

A)
1: 31; 2: 81; 3: 94

###

assay: NCI Yeast Anticancer Drug Screen. Data for the rad50 strain (AID 155);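 note: 0% = growth of vehicle-only cultures of the same strain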; conditions: S. cerevisiae rad50 strain growth inhibition; at 50.0 µM; stronger effect = higher value
About 79,000 compounds went through this panel and 15% of them were active in at least one assay; those are over-represented in the sample as a whole.
Would you mind telling me the reported growth inhibition of each entry?
One number for each entry, in %.

• C=CCSc1nc2ccccc2c(=O)n1Cc1ccco1 = -7.25
• O=[N+]([O-])c1cc(Cl)cc(C(c2cc(Cl)cc([N+](=O)[O-])c2O)C(Cl)(Cl)Cl)c1O = 97.7
• ON=C(CC(O)(C(F)(F)Cl)C(F)(F)Cl)CC(O)(C(F)(F)Cl)C(F)(F)Cl = 99.7

Hello, I would appreciate it if you could give growth inhibition for each entry below.
1. O=C(OC1CC2CC1C1CC=CC21)c1ccccc1 (centres undefined)
2. CC(/C=C/c1ccc(Cl)cc1)=N\NC(N)=S
3. CCCCc1c2c(nc3c1CCCC3O)/C(=C/c1ccccc1)CCC2 (centres undefined)
4. COc1ccc(C(=O)Cc2ccc(Cl)cc2)cc1OC

A)
[-5.55, 68.2, 50.8, 6.3]

Hello, I would appreciate it if you could give growth inhibition for each entry below.
1. COc1ccc2c(c1)nc1ccc(Cl)cc1[n+]2C
2. Cc1ccc(NC(=S)SCc2ccco2)cc1Cl
3. OC1(c2ccccc2)c2ccccc2Sc2ccccc21
4. O=C(CC(=O)c1ccccc1)CC(=O)c1cccc(Cl)c1
5. O=c1ccc2nc3ccccc3ccc-2c1
6. COc1cc(NCCCCCNC(C)C)c2ncc(C)c(C)c2c1

A)
1: 82.2; 2: 99.5; 3: 99; 4: 81.1; 5: 23; 6: 75.7

// sample O=S(=O)(Nc1nccs1)c1ccc(N=Cc2cn(Cc3ccccc3)c3ccccc23)cc1 , its growth inhibition was 82.3
